molecular target: mouse recombinant C0-C2 protein, WT (mC0-C2^Wt) (mouse, UniProt O70468 1-448); experiment: solid-phase binding assay (SPBA); 20 μM C0-C2 (bait) adsorbed onto microtiter plates overnight at 4 °C; 0-20 μM recombinant myosin S2 (prey) added; bound S2 detected with polyclonal anti-S2 antibody and Alexa Fluor 568 secondary antibody; intensity normalised to that at maximal S2; one-phase association fit for Bmax and Kd; conditions: both partners purified
Sequence (O70468 1-448): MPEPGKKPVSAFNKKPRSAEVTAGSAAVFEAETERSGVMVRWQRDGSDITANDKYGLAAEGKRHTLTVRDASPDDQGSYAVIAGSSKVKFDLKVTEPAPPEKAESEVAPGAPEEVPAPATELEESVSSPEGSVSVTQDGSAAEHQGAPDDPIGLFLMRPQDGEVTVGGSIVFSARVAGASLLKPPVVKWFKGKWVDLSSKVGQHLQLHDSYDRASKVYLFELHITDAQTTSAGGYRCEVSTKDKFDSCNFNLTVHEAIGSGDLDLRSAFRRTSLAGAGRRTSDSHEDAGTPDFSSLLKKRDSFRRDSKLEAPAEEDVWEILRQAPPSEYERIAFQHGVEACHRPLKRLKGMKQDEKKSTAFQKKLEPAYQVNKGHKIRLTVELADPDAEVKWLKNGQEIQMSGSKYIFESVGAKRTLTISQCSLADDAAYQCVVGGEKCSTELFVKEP
Kd values for the binders below.

- binder: "human recombinant proximal S2 WT protein (hS2^Wt) (domain or fragment, UniProt P12883 838-963, looked up, pET28a+ vector; also called WT hS2; human cardiac myosin S2) PLLKSAEREKEMASMKEEFTRLKEALEKSEARRKELEEKMVSLLQEKNDLQLQVQAEQDNLADAEERCDQLIKNKIQLEAKVKEMNERLEDEEEMNAELTAKKRKLEDECSELKRDIDDLELTLAK"
  Kd, nM: 1890
- binder: "human recombinant proximal S2 protein with E930Δ mutation (hS2^E930Δ) (domain or fragment, UniProt P12883 838-963, looked up, human β-myosin heavy chain (MYH7), proximal S2, residues 838-963, with the HCM-causing deletion of E930; mutation found in HCM patients, introduced by site-directed mutagenesis; coiled coil in low-salt buffer by CD) PLLKSAEREKEMASMKEEFTRLKEALEKSEARRKELEEKMVSLLQEKNDLQLQVQAEQDNLADAEERCDQLIKNKIQLEAKVKEMNERLEDEEMNAELTAKKRKLEDECSELKRDIDDLELTLAK"
  Kd, nM: 1320
- binder: "human recombinant proximal S2 protein with R870H mutation (hS2^R870H) (domain or fragment, UniProt P12883 838-963, looked up, human β-myosin heavy chain (MYH7), proximal S2, residues 838-963, with the HCM-causing mutation R870H; mutation found in HCM patients, introduced by site-directed mutagenesis; coiled coil in low-salt buffer by CD) PLLKSAEREKEMASMKEEFTRLKEALEKSEARHKELEEKMVSLLQEKNDLQLQVQAEQDNLADAEERCDQLIKNKIQLEAKVKEMNERLEDEEEMNAELTAKKRKLEDECSELKRDIDDLELTLAK"
  Kd, nM: 1640
- binder: "human recombinant proximal S2 protein with E924K mutation (hS2^E924K) (domain or fragment, UniProt P12883 838-963, looked up, human β-myosin heavy chain (MYH7), proximal S2, residues 838-963, with the HCM-causing mutation E924K; mutation found in HCM patients, introduced by site-directed mutagenesis; coiled coil in low-salt buffer by CD) PLLKSAEREKEMASMKEEFTRLKEALEKSEARRKELEEKMVSLLQEKNDLQLQVQAEQDNLADAEERCDQLIKNKIQLEAKVKEMNKRLEDEEEMNAELTAKKRKLEDECSELKRDIDDLELTLAK"
  Kd, nM: 1510

Where do these numbers come from? They come from paper PMC8239744.
